Item-by-item account of relative viability
test system: EPLC-272H; experiment: relative viability (nuclei count vs DMSO), 5 days (fraction); higher = more cells survive; conditions: first compound 2 µM
Readout Label: relative viability

{"Compound": "COCC1(CO)C(=O)C2CCN1CC2 (stereo unspecified) [PRIMA-1MET] + O=C(CCCCCCC(=O)Nc1ccccc1)NO [Vorinostat] (partner 1 µM)", "Readout Label": "relative viability", "Recorded Value": 0.417}
{"Compound": "COCC1(CO)C(=O)C2CCN1CC2 (stereo unspecified) [PRIMA-1MET] + Nc1nc2[nH]cc(CCc3ccc(C(=O)N[C@@H](CCC(=O)O)C(=O)O)cc3)c2c(=O)[nH]1 [Pemetrexed] (partner 0.2 µM)", "Readout Label": "relative viability", "Recorded Value": 0.314}
{"Compound": "COCC1(CO)C(=O)C2CCN1CC2 (stereo unspecified) [PRIMA-1MET] + O=C(c1cc(Cc2n[nH]c(=O)c3ccccc23)ccc1F)N1CCN(C(=O)C2CC2)CC1 [Olaparib] (partner 8 µM)", "Readout Label": "relative viability", "Recorded Value": 0.911}
{"Compound": "COCC1(CO)C(=O)C2CCN1CC2 (stereo unspecified) [PRIMA-1MET] + C[C@@H](Oc1cc(-c2cnn(C3CCNCC3)c2)cnc1N)c1c(Cl)ccc(F)c1Cl [Crizotinib] (partner 1 µM)", "Readout Label": "relative viability", "Recorded Value": 0.816}
{"Compound": "COCC1(CO)C(=O)C2CCN1CC2 (stereo unspecified) [PRIMA-1MET] + COc1cccc2cc(-c3nc([C@H]4CC[C@H](C(=O)O)CC4)n4ncnc(N)c34)[nH]c12 [OSI-027] (partner 0.5 µM)", "Readout Label": "relative viability", "Recorded Value": 0.235}
{"Compound": "COCC1(CO)C(=O)C2CCN1CC2 (stereo unspecified) [PRIMA-1MET] + CC1(C)CCC(c2ccc(Cl)cc2)=C(CN2CCN(c3ccc(C(=O)NS(=O)(=O)c4ccc(N[C@H](CCN5CCOCC5)CSc5ccccc5)c(S(=O)(=O)C(F)(F)F)c4)cc3)CC2)C1 [Navitoclax] (partner 0.5 µM)", "Readout Label": "relative viability", "Recorded Value": 1.15}

---

The following compounds are shown together with reported relative viability values.
tested on: ChaGo-K-1; test: relative viability (nuclei count vs DMSO), 5 days (fraction); higher = more cells survive; conditions: first compound 0.253 µM

{"Compound": "O=c1cc(-c2cccc3c2Sc2ccccc2S3)oc(N2CCOCC2)c1 + CC(C)C[C@H](NC(=O)[C@H](Cc1ccccc1)NC(=O)c1cnccn1)B(O)O [Bortezomib] (partner 0.002 µM)", "relative viability": 1.02}
{"Compound": "O=c1cc(-c2cccc3c2Sc2ccccc2S3)oc(N2CCOCC2)c1 + Nc1nc2[nH]cc(CCc3ccc(C(=O)N[C@@H](CCC(=O)O)C(=O)O)cc3)c2c(=O)[nH]1 [Pemetrexed] (partner 0.2 µM)", "relative viability": 0.264}
{"Compound": "COc1nc(C)cnc1NS(=O)(=O)c1cccnc1-c1ccc(-c2nnco2)cc1 [Zibotentan] + NC(=O)Nc1cc(-c2cccc(F)c2)sc1C(=O)N[C@H]1CCCNC1 [AZD7762] (partner 0.2 µM)", "relative viability": 0.842}
{"Compound": "O=c1cc(-c2cccc3c2Sc2ccccc2S3)oc(N2CCOCC2)c1 + Nc1ncn([C@H]2C[C@H](O)[C@@H](CO)O2)c(=O)n1 [Decitabine] (partner 2 µM)", "relative viability": 0.555}
{"Compound": "COc1nc(C)cnc1NS(=O)(=O)c1cccnc1-c1ccc(-c2nnco2)cc1 [Zibotentan] + COc1cc2c(Oc3ccc(NC(=O)C4(C(=O)Nc5ccc(F)cc5)CC4)cc3F)ccnc2cc1OCCCN1CCOCC1 [Foretinib] (partner 0.25 µM)", "relative viability": 0.926}

meta.source: the supplement of paper PMC10307832
